FYI, the data here is from patent US20200247894A1.

Reported kon values for a set of binders
- tested target: T1, Macaca fascicularis IL2Rγ extracellular domain expressed with a C-terminal myc-myc-hexahistidine tag (Macaca fascicularis)
- T1 construct: whole entry is the tagged construct; also called mfIL-2Rg-MMH
- T1 chain: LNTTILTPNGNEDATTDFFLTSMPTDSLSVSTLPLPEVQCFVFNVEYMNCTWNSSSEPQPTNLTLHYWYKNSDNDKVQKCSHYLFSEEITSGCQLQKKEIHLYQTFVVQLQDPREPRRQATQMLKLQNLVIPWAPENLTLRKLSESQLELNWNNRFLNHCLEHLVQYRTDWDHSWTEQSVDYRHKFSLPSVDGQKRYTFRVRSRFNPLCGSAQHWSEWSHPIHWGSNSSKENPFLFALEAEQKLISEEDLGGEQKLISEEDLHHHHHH
- experiment notes: SPR Biacore 4000, anti-hFc-captured mAb, 37 C
Your answer is read as M⁻¹ s⁻¹, so omit the unit and give the number.

Guide cases for kon, answers given:
[[record]]
binder = "H4H13538P (antibody, human IgG4 S228P, kappa, V domains shown, fully human anti-IL2Rgamma mAb, human IgG4 Fc) VH: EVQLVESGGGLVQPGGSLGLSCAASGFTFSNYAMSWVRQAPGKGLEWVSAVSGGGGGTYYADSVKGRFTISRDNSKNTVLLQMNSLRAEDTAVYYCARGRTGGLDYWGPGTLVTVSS VL: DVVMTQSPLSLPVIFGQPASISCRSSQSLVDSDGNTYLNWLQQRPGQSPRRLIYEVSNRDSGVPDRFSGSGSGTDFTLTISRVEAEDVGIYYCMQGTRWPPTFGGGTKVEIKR"
reported_result = 169000

[[record]]
binder = "H4H12899P (antibody, human IgG4 S228P, kappa, V domains shown, fully human anti-IL2Rgamma mAb, human IgG4 Fc) VH: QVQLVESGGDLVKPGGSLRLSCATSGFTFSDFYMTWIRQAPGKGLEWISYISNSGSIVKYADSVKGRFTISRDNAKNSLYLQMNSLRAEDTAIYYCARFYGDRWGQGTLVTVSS VL: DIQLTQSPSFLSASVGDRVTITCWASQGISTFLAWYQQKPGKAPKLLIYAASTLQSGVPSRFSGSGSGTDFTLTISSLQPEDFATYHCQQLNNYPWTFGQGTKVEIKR"
reported_result = 322000

[[record]]
binder = "H4H12874P (antibody, human IgG4 S228P, kappa, V domains shown, fully human anti-IL2Rgamma mAb, human IgG4 Fc) VH: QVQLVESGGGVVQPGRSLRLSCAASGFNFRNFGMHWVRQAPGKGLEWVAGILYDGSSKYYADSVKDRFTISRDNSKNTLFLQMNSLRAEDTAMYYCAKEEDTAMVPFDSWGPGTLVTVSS VL: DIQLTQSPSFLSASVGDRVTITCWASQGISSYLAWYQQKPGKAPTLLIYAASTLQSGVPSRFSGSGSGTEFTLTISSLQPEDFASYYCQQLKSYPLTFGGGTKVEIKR"
reported_result = 93300


Per the record, H4H12863P (antibody, human IgG4 S228P, kappa, V domains shown, fully human anti-IL2Rgamma mAb, human IgG4 Fc) VH: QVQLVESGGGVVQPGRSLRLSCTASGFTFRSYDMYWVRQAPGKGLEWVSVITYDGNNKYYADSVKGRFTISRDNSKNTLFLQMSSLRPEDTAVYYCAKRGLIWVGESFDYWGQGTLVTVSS VL: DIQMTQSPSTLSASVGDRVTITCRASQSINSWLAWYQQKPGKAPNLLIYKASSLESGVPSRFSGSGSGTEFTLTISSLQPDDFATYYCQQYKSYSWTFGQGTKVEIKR has kon of 266000
